Please go through the items and note down their EC50 (read off the curve).
TESTED TARGET: T1, human LAIR1 extracellular domain (ECD) protein with 6 HIS tag at the C-terminus (human, UniProt Q6GTX8 22-165)
T1 construct: Produced recombinantly in HEK293 cells; the whole entry is named here; also called LAIR1 ECD; LAIR1-ECD
T1 chain: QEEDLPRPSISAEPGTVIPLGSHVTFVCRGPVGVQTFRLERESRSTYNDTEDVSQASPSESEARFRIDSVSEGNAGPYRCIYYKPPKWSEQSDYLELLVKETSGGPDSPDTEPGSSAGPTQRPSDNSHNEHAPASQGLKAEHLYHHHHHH
PROTOCOL NOTES: ELISA, LAIR1 ECD coated

IN: EC50 (read off the curve) for LA-111 (antibody, V domains shown, Rabbit monoclonal IgG) VH: EQSVEESGGGLVAPGGSLTLTCTVSGFSLSNYHMGWVRQAPGKGLEWIGYIYTHGTTFYASWAKGRFTISKTSTTVDLKMTRLTTGDTATYFCARGGYADYNILYNLWGPGTLVTISS VL: ELVLTQTPASVEAAVGGTVTINCQASQSISSYLAWYQQKPGQPPKLLIYDASDLASGVPSRFKGSRSGTEFTFTISDLECADAATYYCQTYDSSTTAAFGGGTEVEIK ?
OUT: ~0.01 mg/L

IN: Look up EC50 (read off the curve) for this binder: LA-259-1 (antibody, V domains shown, Rabbit monoclonal IgG) VH: QSVKESGGRLVTPGTPLTLTCTASGFSLYKYNIQWVRQAPGKGLEYIGASTYAGYTYYASWAKGRVTISRTSTTVDLKMTSPTTEDTATYFCARHIDGDYSGYALWGPGTLVTISS VL: ELVLTQTPASVSAAVGGTVTIKCQASQSIGTWFAWYQQKPGQSPKLLIYGPSKLASGVPPRFKGSGSGTEFTLTISDLECADAATYYCQSTYFGVDYLGGTFGGGTEVVVK
OUT: ~0.03 mg/L
